# target-under-test: anti-SARS-CoV-2 VHH nanobody tagged with a hinge, 3xFLAG and C-terminal His tags
# assay-overview: other fluorescence titration
The star is where a group is joined. Biotin = O=C1N[C@H]2[C@H](CS[C@H]2CCCCC(=O)*)N1
In this section, each of the binders is paired with its reported pEC50.
Keep in mind that pEC50 stands for -log10 of concentration in molar terms.

ATTO520-C2 maleimide double-labeled YW Fab 3D5 Q-body (Fab, V domains shown, VH of antibody 3D5, as the VH of m7 with the stated change; numbers count on: Kabat numbering of the heavy chain; CH1 of the vector pUQ2, as in m7; VL of antibody 3D5, as the light chain of m7; CL of the vector pUQ2, as the light chain of m7; m9 labelled with two ATTO520 dyes; also called YW ATTO520; YW-ATTO520; source: E. coli SHuffle T7 Express with pGro7, purified (Talon IMAC), labelled, …) VH: QVQLQQSGPEDVKPGASVKISCKASGYTFTDYWMNWVKQSPGKGLEWIGDINPNNGGTSYNQKFKGRATLTVDKSSSTAYMELRSLTSEDSSVYYCESQSGAYWGQGTTVTVSA VL: DILMTQTPSSLPVSLGDQASISCRSSQSIVHSNGNTYLEWYLQKPGQSPKLLIYKVSNRFSGVPDRFSGSGSGTDFTLKISRVEAEDLGVYYCFQGSHVPFTFGSGTKLEIK = 5.52
5-TAMRA C6 maleimide double-labeled YW Fab 3D5 Q-body (Fab, V domains shown, VH of antibody 3D5, as the VH of m7 with the stated change; numbers count on: Kabat numbering of the heavy chain; CH1 of the vector pUQ2, as in m7; VL of antibody 3D5, as the light chain of m7; CL of the vector pUQ2, as the light chain of m7; m9 labelled with two dyes; also called YW TAMRA; source: E. coli SHuffle T7 Express with pGro7, purified (Talon IMAC), labelled, purified (anti-FLAG M2 …)) VH: QVQLQQSGPEDVKPGASVKISCKASGYTFTDYWMNWVKQSPGKGLEWIGDINPNNGGTSYNQKFKGRATLTVDKSSSTAYMELRSLTSEDSSVYYCESQSGAYWGQGTTVTVSA VL: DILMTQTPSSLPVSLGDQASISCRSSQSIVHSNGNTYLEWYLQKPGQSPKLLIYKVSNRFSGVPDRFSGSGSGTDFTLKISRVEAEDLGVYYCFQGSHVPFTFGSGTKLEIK = 4.95

In the following, a different binder is considered.
# input Data request, read-out pEC50, for ATTO520-C2 maleimide double-labeled WW Fab 3D5 Q-body (Fab, V domains shown, VH of antibody 3D5, as the VH of m7 with the stated changes; numbers count on: Kabat numbering of the heavy chain; CH1 of the vector pUQ2, as in m7; VL of antibody 3D5, as the light chain of m7; CL of the vector pUQ2, as the light chain of m7; m8 labelled with two ATTO520 dyes; also called WW ATTO520; WW-ATTO520; source: E. coli SHuffle T7 Express with pGro7, purified (Talon IMAC), labelled, …) VH: QVQLQQSGPEDVKPGASVKISCKASGYTFTDWWMNWVKQSPGKGLEWIGDINPNNGGTSYNQKFKGRATLTVDKSSSTAYMELRSLTSEDSSVYYCESQSGAYWGQGTTVTVSA VL: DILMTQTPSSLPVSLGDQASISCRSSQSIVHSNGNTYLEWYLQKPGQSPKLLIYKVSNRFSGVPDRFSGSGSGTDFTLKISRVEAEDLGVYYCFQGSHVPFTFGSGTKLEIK
# output 4.97
